Assay: S. cerevisiae growth modulation with rapamycin, primary screen, strain BY4716, OD600, 96 h (AID 1091); further: test concentration not given here
Conditions: higher = more signal, called active from +8 up or from −8 down
quantity kind: z-score
# output: bare number, no unit

Worked cases, z-score given:
COc1ccc([Si](C)(C)[C@@H]2[C@@H](CC(=O)N3Cc4ccccc4C[C@H]3CO)O[C@]3(C(=O)N(C)c4c(Br)cc(C)cc43)[C@H]2C)cc1: 2.03
CCCC#C[Si](O[C@H](CC)c1cn([C@H](CO)Cc2ccccc2)nn1)(C(C)C)C(C)C: -2.6
CN(C)CCCC[C@@H]1NC(=O)[C@H]2C[C@@H](C(=O)NCCCCCNC(=O)CS)[C@@H](c3cccc(OCCO)c3)N2C1=O: -0.296

Moving on to the next compound.
What value of measured z-score is listed for `CC(C)(C)OC(=O)CC[C@@]1(C(=O)NCCN2CCOCC2)N=C(c2ccc(OCCCO)cc2)O[C@@H]1c1ccccc1N=[N+]=[N-]` ?
-0.336

---

Catalogue of molecules with associated z-score
Assay: Plasmodium falciparum growth inhibition, primary screen, strain 3D7, DAPI fluorescence, 100 nL (AID 1184);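 further: parasites grown inside human red blood cells in medium with human serum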
Conditions: P. falciparum 3D7 growth, 3 d, higher = more signal
# output: bare number, no unit

Worked cases, z-score given:
CC1CC/C=C\[C@H]2OC34C=CCN(c5ccc(Cl)cc5)C(=O)[C@H]3N(CCO)C(=O)[C@]4(C)C2C(=O)O1 (some centres undefined): -0.515
COC(=O)c1c(CC[C@@H](CO)NC(=O)N[C@H](Cn2cc(Cc3ccccc3)nn2)C(C)C)oc(C(C)=O)c1C(=O)OC: -1.99
CCOc1cc(C(O)C2C=CC3C(=O)N(c4ccccc4)C(=O)C3N2Nc2ccccc2)ccc1O (centres undefined): -0.033

Moving on to the next molecule.
What value of measured z-score is listed for `CC(C)(C)OC(=O)CC[C@@]12N=C(c3ccc(OCCCO)cc3)O[C@@H]1c1ccccc1N(CCS(=O)(=O)c1ccccc1)C2=O` ?
-1.7

---

Test: small-molecule microarray binders of probe aWnt5a, primary screen, biochemical, biotinylated probe, 635/667 nm fluorescence (AID 1113);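 further: score merges 667 nm fluorescence intensity with signal-to-noise per printed feature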
Conditions: higher = more signal
quantity kind: composite z-score
# output: bare number, no unit

Worked cases, composite z-score given:
COc1ccc(C(=O)Nc2cccc(CN3C(=O)[C@]4(O[C@H](CCO)[C@@H]([Si](C)(C)c5ccc(OC)cc5)[C@@H]4C)c4ccccc43)c2)cc1: 0.0194
COc1ccc(C(O)C2C=CC3C(=O)NC(=O)C3N2Nc2ccccn2)cc1 (stereo unspecified): 0.0158
[N-]=[N+]=NCc1ccccc1C[C@]1(C(=O)O)N=C(c2ccc(OCCCO)cc2)O[C@H]1c1ccccc1N=[N+]=[N-]: 0.0919
COc1ccc([Si](C)(C)[C@@H]2[C@@H](CCO)O[C@]3(C(=O)N(Cc4ccc(N5C(=O)COc6ccccc65)cc4)c4ccccc43)[C@H]2C)cc1: 0.199
CC(C)N1C(=O)[C@@]2(Cc3ccccc31)c1ccccc1C(=O)N(C1CCCCC1)[C@H]2c1ccc(CO)cc1: -0.063

Moving on to the next molecule.
What value of measured composite z-score is listed for `C=CCOC(=O)[C@H]1[C@@H]2C(=O)O[C@@H](c3ccccc3)[C@@H](c3ccccc3)N2[C@@H](c2ccc(OCCOC(=O)[C@H]3C[C@H]4C(=O)N5CCC[C@H]5C(=O)N4[C@H]3c3ccc(O)cc3)cc2)[C@]12C(=O)Nc1ccc(I)cc12` ?
0.547

Attribution: PubChem BioAssay
